assay: Permeability of compound; assay type: ADME; conditions: not told; read-out: permeability
Strictly below 30 ×10⁻⁶ cm/s in Papp: 1. Otherwise: 0.

C[C@H](Oc1ccc(C(=O)NC2CCOCC2)cc1-c1cn(C)nn1)c1ccccn1	1
CCNC(=O)c1ccc(O[C@@H](C)c2ccccn2)c(-c2cn(C)nn2)c1	1
Cn1cc(-c2cc(C(=O)NC3CC3)cc(Cc3ccccc3)n2)nn1	0
CCNC(=O)c1ccc(O[C@H](C)c2ccccc2)c(-c2cn(C)nn2)c1	0
CCNC(=O)c1ccc(OCc2cccc(C)n2)c(-c2cn(C)nn2)c1	0

// switching to the query molecule
Exercise: Quick check: does CCNC(=O)c1ccc(OCc2ccccc2OC)c(-c2cn(C)nn2)c1 have Papp under 30 ×10⁻⁶ cm/s?
Key: 0

----------
Overview of recorded IC50 for various compounds
biological target: Bromodomain-containing protein 2 (Homo sapiens, UniProt P25440); test: Inhibition of 6His-Thr-BRD2 (1 to 473 residues) BD1 domain (unknown origin) incubated for 30 mins by TR-FRET assay
Sequence (P25440 whole entry, the tested form may be a part): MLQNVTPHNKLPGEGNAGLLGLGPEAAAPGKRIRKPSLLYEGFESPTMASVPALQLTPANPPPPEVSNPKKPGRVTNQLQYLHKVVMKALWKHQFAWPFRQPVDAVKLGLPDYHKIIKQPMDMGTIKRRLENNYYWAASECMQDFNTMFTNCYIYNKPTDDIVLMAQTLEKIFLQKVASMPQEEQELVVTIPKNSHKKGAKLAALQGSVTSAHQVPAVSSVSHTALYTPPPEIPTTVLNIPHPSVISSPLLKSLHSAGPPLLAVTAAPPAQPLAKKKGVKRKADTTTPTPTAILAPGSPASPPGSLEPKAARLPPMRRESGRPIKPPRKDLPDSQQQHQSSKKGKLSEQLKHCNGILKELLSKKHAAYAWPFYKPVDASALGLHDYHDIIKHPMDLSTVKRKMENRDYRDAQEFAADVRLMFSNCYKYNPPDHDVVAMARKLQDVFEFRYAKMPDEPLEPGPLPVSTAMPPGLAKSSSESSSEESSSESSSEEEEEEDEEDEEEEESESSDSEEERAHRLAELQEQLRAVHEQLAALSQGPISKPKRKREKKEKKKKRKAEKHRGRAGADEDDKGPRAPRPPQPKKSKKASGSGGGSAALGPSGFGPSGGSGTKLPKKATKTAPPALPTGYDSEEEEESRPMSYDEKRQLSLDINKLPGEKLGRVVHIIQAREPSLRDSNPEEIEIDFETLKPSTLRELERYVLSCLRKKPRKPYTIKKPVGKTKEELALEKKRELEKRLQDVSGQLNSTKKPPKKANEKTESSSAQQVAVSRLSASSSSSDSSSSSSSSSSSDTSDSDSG
Answer with a number only, understood to be in µM.

CCNC(=O)c1cc(Cc2cccc3[nH]ccc23)nc(-c2cn(C)nn2)c1	25.1

Exercise: Identify measured IC50 corresponding to C[C@H](Oc1ccc(C(=O)NC2CC2)cc1-c1cn(C)nn1)c1ccccn1
Key: 39.8

----------
biological target: Bromodomain-containing protein 3 (Homo sapiens, UniProt Q15059); experiment: Inhibition of 6His-Thr-BRD3 (1 to 435 residues) BD1 domain (unknown origin) incubated for 30 mins by TR-FRET assay
Sequence (Q15059 whole entry, the tested form may be a part): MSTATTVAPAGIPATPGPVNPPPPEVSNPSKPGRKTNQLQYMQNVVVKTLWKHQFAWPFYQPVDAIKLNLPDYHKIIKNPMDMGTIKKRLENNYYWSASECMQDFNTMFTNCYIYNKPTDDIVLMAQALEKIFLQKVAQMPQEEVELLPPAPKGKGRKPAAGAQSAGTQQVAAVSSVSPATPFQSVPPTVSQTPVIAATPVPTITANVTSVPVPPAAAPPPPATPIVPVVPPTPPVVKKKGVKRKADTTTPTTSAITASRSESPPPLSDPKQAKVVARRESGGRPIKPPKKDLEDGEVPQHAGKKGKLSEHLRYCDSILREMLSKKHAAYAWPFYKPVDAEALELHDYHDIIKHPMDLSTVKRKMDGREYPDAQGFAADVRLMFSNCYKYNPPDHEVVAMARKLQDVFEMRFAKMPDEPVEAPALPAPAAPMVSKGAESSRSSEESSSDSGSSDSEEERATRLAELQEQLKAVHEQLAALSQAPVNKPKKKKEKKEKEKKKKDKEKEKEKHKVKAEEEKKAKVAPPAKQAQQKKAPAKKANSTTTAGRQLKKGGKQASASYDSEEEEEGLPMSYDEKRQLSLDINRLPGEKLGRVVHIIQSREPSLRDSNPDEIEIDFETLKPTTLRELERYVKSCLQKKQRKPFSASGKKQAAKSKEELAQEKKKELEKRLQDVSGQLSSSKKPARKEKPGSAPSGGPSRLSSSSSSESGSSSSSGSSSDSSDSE
READOUT: IC50 (µM)
Value expressed in µM; do not type the unit.

C[C@H](Oc1ccc(C(=O)NC2CC2)cc1-c1cn(C)nn1)c1ccccn1	12.6

Now for a further molecule.
Exercise: Recall and state the measured IC50 for CCNC(=O)c1cc(Cc2cccc3[nH]ccc23)nc(-c2cn(C)nn2)c1 .
Key: 31.6

----------
assay: Half life in Wistar Han rat at 1 mg/kg, iv measured upto 7 hrs by LC-MS/MS analysis; format: ADME, organism-based; conditions: in vivo
READOUT: half-life (min)
Numeric only. Scale: min

C[C@H](Oc1ccc(C(=O)NC2CC2)cc1-c1cn(C)nn1)c1ccccn1	99
CCNC(=O)c1ccc(OCc2cccc(C)n2)c(-c2cn(C)nn2)c1	27

Exercise: Give half-life for the following compound: CCNC(=O)c1cc(Cc2cccc3[nH]ccc23)nc(-c2cn(C)nn2)c1
Key: 52.2

----------
assay: AUC in Wistar Han rat at 1 mg/kg, iv measured upto 7 hrs by LC-MS/MS analysis; format: ADME, organism-based; parameters: route intravenous, dose 1 mg/kg, time <=7; settings: in vivo
READOUT: AUC at 7 h (ng·h/mL)
Express the result in ng·h/mL but write the number alone.

Exercise: Identify AUC at 7 h associated with the compound CCNC(=O)c1cc(Cc2cccc3[nH]ccc23)nc(-c2cn(C)nn2)c1
Key: 778

Exercise: Return AUC at 7 h for the following compound: CCNC(=O)c1ccc(OCc2cccc(C)n2)c(-c2cn(C)nn2)c1
Key: 873

Exercise: Give AUC at 7 h for the following compound: C[C@H](Oc1ccc(C(=O)NC2CC2)cc1-c1cn(C)nn1)c1ccccn1
Key: 1180

Numbers sourced from ChEMBL document CHEMBL4834404.
